study-target: hERG potassium channel (Homo sapiens (Human), UniProt Q12809)
Sequence (Q12809 whole entry): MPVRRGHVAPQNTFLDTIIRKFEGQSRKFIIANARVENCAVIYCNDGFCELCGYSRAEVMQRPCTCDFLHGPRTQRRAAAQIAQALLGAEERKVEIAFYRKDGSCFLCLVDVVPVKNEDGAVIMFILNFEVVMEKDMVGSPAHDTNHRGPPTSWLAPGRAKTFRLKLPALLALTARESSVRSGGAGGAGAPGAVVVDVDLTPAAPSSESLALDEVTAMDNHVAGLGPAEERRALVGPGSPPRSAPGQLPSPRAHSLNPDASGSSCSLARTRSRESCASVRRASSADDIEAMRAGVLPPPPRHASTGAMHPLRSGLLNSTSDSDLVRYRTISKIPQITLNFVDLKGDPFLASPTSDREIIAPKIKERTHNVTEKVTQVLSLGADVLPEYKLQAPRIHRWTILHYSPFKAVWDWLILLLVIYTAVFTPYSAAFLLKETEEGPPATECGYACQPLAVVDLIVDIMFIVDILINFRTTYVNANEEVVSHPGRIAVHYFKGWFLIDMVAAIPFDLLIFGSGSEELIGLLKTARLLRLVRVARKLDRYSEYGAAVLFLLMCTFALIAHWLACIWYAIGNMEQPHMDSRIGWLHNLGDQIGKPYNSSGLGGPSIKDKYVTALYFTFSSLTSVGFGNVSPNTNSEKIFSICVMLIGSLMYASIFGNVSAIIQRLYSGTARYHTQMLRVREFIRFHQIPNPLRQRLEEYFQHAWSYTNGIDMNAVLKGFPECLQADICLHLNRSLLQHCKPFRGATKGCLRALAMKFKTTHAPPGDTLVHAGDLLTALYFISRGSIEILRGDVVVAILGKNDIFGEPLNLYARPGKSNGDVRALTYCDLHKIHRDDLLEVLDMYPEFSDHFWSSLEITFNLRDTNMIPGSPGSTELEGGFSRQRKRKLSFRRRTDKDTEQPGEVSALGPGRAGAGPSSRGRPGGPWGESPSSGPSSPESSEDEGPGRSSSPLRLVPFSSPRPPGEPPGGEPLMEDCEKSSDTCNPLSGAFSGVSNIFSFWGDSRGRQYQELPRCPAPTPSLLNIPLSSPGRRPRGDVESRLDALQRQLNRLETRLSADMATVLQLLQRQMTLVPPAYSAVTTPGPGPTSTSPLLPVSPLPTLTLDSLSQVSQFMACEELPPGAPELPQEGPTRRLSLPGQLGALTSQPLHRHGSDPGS
measurement-notes: cell-based
test-parameters: human, 50 μM
A collection of compounds and their measured Inhibition rate (%) of hERG current
Enter your answer as a number in %; do not include the unit.

>>> measured("COc1cc2nn(CCS(=N)(=O)c3ccncc3)cc2cc1NC(=O)c1cccc(C(F)(F)F)n1 (centres unmarked)")
-1.0

Read off the recorded Inhibition rate (%) of hERG current for COc1cc2nn(CCS(=N)(=O)c3ncccn3)cc2cc1NC(=O)c1cccc(C(F)(F)F)n1 (centres unmarked)
-0.2

Provide one value: measured Inhibition rate (%) of hERG current of CC(C)(O)c1cc2nn(CCS(=N)(=O)c3ccccc3)cc2cc1NC(=O)c1cccc(C(F)(F)F)n1 (centres unmarked)
0.7

Fill in Inhibition rate (%) of hERG current for record CC(C)(O)c1cc2nn(CCS(=N)(=O)c3ccnc4ccccc34)cc2cc1NC(=O)c1cccc(C(F)(F)F)n1 (centres unmarked)
0.9

Tell me its Inhibition rate (%) of hERG current given COc1cc2nn(CCS(=N)(=O)c3ccncc3)cc2cc1NC(=O)c1cnn2cccnc12 (centres unmarked) as the entry.
2.1

Tell us which Inhibition rate (%) of hERG current value is on record for COc1cc2nn(CCS(=N)(=O)c3ccccc3)cc2cc1NC(=O)c1cccc(C(F)(F)F)n1 (centres unmarked)
2.3

State its Inhibition rate (%) of hERG current for this compound: Cc1cc(-c2nc(C(=O)Nc3cc4cn(CCS(=N)(=O)c5ccnc6ccccc56)nc4cc3C(C)(C)O)co2)ccn1 (centres unmarked)
1.2

Let me know recorded Inhibition rate (%) of hERG current for CC(C)(O)c1cc2nn(CCS(=N)(=O)c3ncnc4ccccc34)cc2cc1NC(=O)c1cccc(C(F)(F)F)n1 (centres unmarked) , thanks.
1.0
